# Assay name: Degradation time course of peptide in reaction buffer without butelase 1 (HPLC)
# Assay type: physicochemical
# Conditions: absence of butelase 1, peptide 100 μM, 42° C.
Numbered stars: 1 amine (or outer) side, 2 acyl side, 3 side chain; on linkers, the order of the positions; unused ones are H or OH. Square brackets hold non-standard residues; d marks the D form. Peptide text beside a SMILES is read from it. X1 = O=C(CO[*:1])[*:2]

- Molecule: "CC(C)[C@H](NC(=O)COC(=O)[C@H](CC(N)=O)NC(=O)[C@H](CCCCN)NC(=O)[C@@H](N)Cc1ccc(O)cc1)C(N)=O [Peptide 2, YKN(O)GV] (H-YKN[X1]V-NH2; N-terminus assumed)"
  Unit of measure: "h"
  half-life at 100 μM: 0.75

// provenance: patent US11091786B2
